# experimental_system: erythrocyte KCa3.1 channels (Homo sapiens (Human))
# assay_comment: Erythrocyte KCa3.1 assay
# run_parameters: human erythrocytes, A23187-activated, 37° C.; read-out: RBC K (in vitro) Human IC50
# Experimental: Human blood was drawn from healthy human volunteers in a standard heparinized blood sampling vial (Vacutainer, Li/heparin, BD Bioscience, Plymouth, UK). The erythrocytes were packed by centrifugation, and the plasma and buffy coat were removed by aspiration. […] The erythrocyte membrane potential, Vm, was calculated according to: Vm=−61.5 mV×(pHo−pHi) and the fractional remaining Ca^2+-activated K^+-conductance at the concentration C of blocker, fGK(C), was calculated from […]
quantity: IC50
Answer as a quantity: numeral, then unit.

For erythrocyte KCa3.1 channels (Homo sapiens (Human)), give IC50 of the listed compound: COC(=O)N(C1CNC1)C1(c2ccc(F)c(C(F)(F)F)c2)CC1 [[5]] 310 nM

For erythrocyte KCa3.1 channels (Homo sapiens (Human)), give IC50 of the listed compound: COC(=O)N(CC(C)(C)NO)C1(c2ccc(F)c(C(F)(F)F)c2)CC1 [[33]] 120 nM

For erythrocyte KCa3.1 channels (Homo sapiens (Human)), give IC50 of the listed compound: COC(=O)N(C[C@@]1(C)CCCN1)C1(c2ccc(F)c(C(F)(F)F)c2)CC1 [[46]] 100 nM

For erythrocyte KCa3.1 channels (Homo sapiens (Human)), give IC50 of the listed compound: COC(=O)N(CC(C)(C)N)C1(c2ccc(F)c(OC(F)(F)F)c2)CC1 [[20]] 92 nM

For erythrocyte KCa3.1 channels (Homo sapiens (Human)), give IC50 of the listed compound: COC(=O)N(C[C@@H]1CCN1)C1(c2ccc(F)c(C(F)(F)F)c2)CC1 [[53]] 360 nM

For erythrocyte KCa3.1 channels (Homo sapiens (Human)), give IC50 of the listed compound: COC(=O)N(CC(C)(C)NC(C)=O)C1(c2ccc(F)c(C(F)(F)F)c2)CC1 [[24]] 310 nM

For erythrocyte KCa3.1 channels (Homo sapiens (Human)), give IC50 of the listed compound: COC(=O)N(CC1CCN1C)C1(c2ccc(F)c(C(F)(F)F)c2)CC1 (centres unmarked) [[30]] 170 nM

For erythrocyte KCa3.1 channels (Homo sapiens (Human)), give IC50 of the listed compound: COC(=O)N(CC(C)(C)N)C1(c2cccc(Cl)c2)CC1 [[13]] 440 nM

For erythrocyte KCa3.1 channels (Homo sapiens (Human)), give IC50 of the listed compound: CC(C)OC(=O)N(C[C@@H]1CCCN1)C1(c2ccc(F)c(C(F)(F)F)c2)CC1 [[44]] 200 nM

For erythrocyte KCa3.1 channels (Homo sapiens (Human)), give IC50 of the listed compound: COC(=O)N(CC(C)(C)N)C1(c2cc(C(F)(F)F)c(F)cn2)CC1 [[17]] 400 nM

For erythrocyte KCa3.1 channels (Homo sapiens (Human)), give IC50 of the listed compound: COC(=O)N(C[C@H]1CCCN1)C1(c2ccc(F)c(C(F)(F)F)c2)CC1 [[22]] 210 nM

For erythrocyte KCa3.1 channels (Homo sapiens (Human)), give IC50 of the listed compound: COC(=O)N(C[C@@H]1CCCN1)C1(c2ccc(F)c(C(F)(F)F)c2)CC1 [[23]] 120 nM

For erythrocyte KCa3.1 channels (Homo sapiens (Human)), give IC50 of the listed compound: CC(C)(N)CN(C1(c2ccc(F)c(C(F)(F)F)c2)CC1)S(C)(=O)=O [[21]] 75 nM

For erythrocyte KCa3.1 channels (Homo sapiens (Human)), give IC50 of the listed compound: CCOC(=O)N(C[C@H]1CCCN1)C1(c2ccc(F)c(C(F)(F)F)c2)CC1 [[38]] 120 nM

Data credit: patent US12006289B2
